# METHOD NOTES: in vivo
# Set-up: species or system SD rats
# EXPERIMENTAL PARAMETERS: both sexes, SD, rat, po
PARAMETER: NOAEL at 26 weeks

IN: So what's the measured NOAEL at 26 weeks for this one? COc1cc2[nH]c(=O)c3nn(C(OC(=O)OC(C)C)C(C)C)nc3c(=O)c2cc1OC (stereo not shown)
OUT: ≥ 1000 mg/kg/day

Ref: patent US7858612B2
